Target: human SGLT1 (Homo sapiens (Human), UniProt P13866)
Sequence (P13866 whole entry): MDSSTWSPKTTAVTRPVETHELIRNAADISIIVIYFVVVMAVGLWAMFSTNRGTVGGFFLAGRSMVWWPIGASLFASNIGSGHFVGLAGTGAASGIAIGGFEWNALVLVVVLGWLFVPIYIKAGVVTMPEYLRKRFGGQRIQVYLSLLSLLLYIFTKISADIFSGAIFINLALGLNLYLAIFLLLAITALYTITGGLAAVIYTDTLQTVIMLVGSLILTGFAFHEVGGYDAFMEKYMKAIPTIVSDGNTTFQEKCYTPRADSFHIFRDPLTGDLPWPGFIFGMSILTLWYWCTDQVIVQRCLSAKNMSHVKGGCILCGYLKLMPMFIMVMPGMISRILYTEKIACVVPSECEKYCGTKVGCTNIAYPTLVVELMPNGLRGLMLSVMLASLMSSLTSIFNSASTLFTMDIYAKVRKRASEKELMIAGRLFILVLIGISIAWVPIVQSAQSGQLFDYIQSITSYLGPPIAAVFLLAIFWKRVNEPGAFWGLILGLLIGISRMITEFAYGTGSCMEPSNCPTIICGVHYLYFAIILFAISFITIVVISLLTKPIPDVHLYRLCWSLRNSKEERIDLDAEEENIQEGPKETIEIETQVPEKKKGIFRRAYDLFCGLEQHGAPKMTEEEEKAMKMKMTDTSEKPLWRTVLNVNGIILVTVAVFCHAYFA
Assay: Test of inhibitory activity on SGLT1 (14C-AMG uptake in CHO cells expressing human SGLT1)
Conditions: CHO cells expressing human SGLT1, 0.5 μM 14C-AMG, 37° C. 1 hour
pIC50: −log10 of the molar value.
MEASUREMENT NAME: pIC50

CCC[C@H]1O[C@@H](c2ccc(C)c(Cc3ccc(CCCC(=O)NC4(C(=O)NCCN(C)C)CCCCC4)cc3)c2)[C@H](O)[C@@H](O)[C@@H]1O
9.60

[A] CC[C@H]1O[C@@H](c2ccc(C)c(Cc3ccc(CCCC(=O)NC4(C(=O)NCCN(C)C)CCCCC4)cc3)c2)[C@H](O)[C@@H](O)[C@@H]1O
[B] Cc1ccc([C@]23OC[C@](CO)(O2)[C@@H](O)[C@H](O)[C@H]3O)cc1Cc1ccc(CCCC(=O)NC2(C(=O)NCCN(C)C)CCCCC2)cc1
IN: // max by pIC50 over [ A , B ] Use the label to indicate which entry you chose.
OUT: A
(A: 9.66, B: 8.93)
